- Test system: Bombyx mori
- EXPERIMENTAL DETAILS: Antijuvenile hormone activity in third-instar larvae of Bombyx mori assessed as induction of precocious metamorphosis at 10 ug/larvae topically applied to the dorsal abdomen
- Assay type: functional
Rule: Activity below 60% gives YES. Equal to or above 60% gives NO.

For orientation, consider the following solved cases.
{"COMPOUND": "CCCCn1c(COc2ccc(C(=O)OCC)cc2)cc2ccccc21", "CAT": "NO"}
{"COMPOUND": "CCOC(=O)c1ccc(OCc2cc3ccccc3n2Cc2ccccc2)cc1", "CAT": "NO"}
{"COMPOUND": "CCOC(=O)c1ccc(OC[C@@H]2Cc3ccccc3N2Cc2ccccc2)cc1", "CAT": "YES"}
{"COMPOUND": "CCCCN1c2ccccc2C[C@H]1COc1ccc(C(=O)OCC)cc1", "CAT": "NO"}
{"COMPOUND": "CCCn1c(COc2ccc(C(=O)OCC)cc2)cc2ccccc21", "CAT": "NO"}
{"COMPOUND": "CCOC(=O)c1ccc(OCc2cc3ccccc3n2CC)cc1", "CAT": "YES"}

Shifting focus to the compound that follows.
Query: Hello, I'm reviewing records and need to know if Activity of CCCCC(COc1ccc(C(=O)OCC)cc1)Cc1ccccc1 (configuration not stated) is below 60%. Could you check?
Response: YES
